Hey, just so you know, these numbers are from PubChem BioAssay (NCI).

Test system: MDA-MB-468 breast
ASSAY SUMMARY: NCI-60 one-dose screen, 48 h
APPLIED CONDITIONS: 10 µM unless noted
The panel holds about 83,000 compounds, 20% with a hit somewhere; the sample as a whole holds those more often. The source made the active and inactive calls. Rule for the calls: active = growth percent below 10; inactive = the rest.
# output must be one of active, inactive

As a guide, the following entries are already answered.
O=C(CSC1CCc2ccccc21)N/N=C/c1ccccc1O (stereo not given): inactive
N=C(N)c1ccc(-c2ccc(-c3ccc(Cl)cc3)s2)nc1: active

Test call, this compound: O=C(NNc1nc2cc(F)c(F)cc2n2cccc12)c1ncccn1
active

Test call, this compound: CC(C)(C)C1=CC(=O)C(C(C)(C)C)=CC1=O
inactive

Test call, this compound: COc1ccc2[nH]c(O)c(/C=c3/cc4c(c(-c5ccc(F)cc5)n3)=Nc3ccccc3-4)c2c1
inactive

Test call, this compound: COc1cc(-c2cc(/C=C3\C(=O)Nc4ccc(Cl)cc43)[nH]n2)cc(OC)c1OC
inactive

Test call, this compound: CCN(CC)CCCNCc1cc(-c2ccccc2)nc2ccccc12
inactive

Test call, this compound: Oc1ccc(O)c(-[n+]2ccccc2)c1
inactive

###

Test system: OVCAR-4 ovarian
ASSAY SUMMARY: NCI-60 one-dose screen, 48 h (100 = growth as untreated, 0 = no growth, -100 = all killed)
APPLIED CONDITIONS: 10 µM
Compounds without any hit were thinned out: in the full panel of roughly 83,000, 20% have a hit.
ENDPOINT NAME: growth (%)
Numeric only. Scale: %

Record request: growth value, item C#CCOc1cc(N(CC)CC)ccc1C(C(=O)NC(C)(C)C)N(C(=O)C1CCc2cc(F)ccc2O1)c1ccc(F)cc1F (centres undefined)
43.7

###

Test system: MDA-MB-468 breast
ASSAY SUMMARY: NCI-60 one-dose screen, 48 h
APPLIED CONDITIONS: 10 µM unless noted
The panel holds about 83,000 compounds, 20% with a hit somewhere; the sample as a whole holds those more often. Activity calls are given as the source filed them. Rule for the calls: active = growth percent below 10; inactive = the rest.
# output must be one of 1.0 = active, 0.0 = inactive

Fc1cc(C(F)(F)F)ccc1-c1cncnc1NC1CCCCCC1: 0.0
COc1cc(C2CC(c3ccc(Oc4ccc(Cl)cc4)cc3)=NN2c2nc(-c3ccc(Cl)cc3)c(C#N)c(N3CCOCC3)n2)cc(OC)c1OC (centres undefined): 0.0
COc1ccc(C(=O)/C=C/c2c(C(F)(F)F)nc3ccccn23)cc1OC: 1.0

Test call, this compound: Cc1nc2c(-c3cnc(N)nc3)nc(N3CCOCC3)nc2n1C(C)C
1.0

Test call, this compound: Cc1ccccc1NS(=O)(=O)c1cccc(C(=O)Nc2ccc(Br)cc2)c1
1.0

Test call, this compound: CCCc1n(Cc2ccc3ccccc3c2)cc[n+]1Cc1ccc2ccccc2c1
1.0

###

Listed here are compounds together with their documented growth.
Test system: HCC-2998 colon
ASSAY SUMMARY: NCI-60 one-dose screen, 48 h (100 = growth as untreated, 0 = no growth, -100 = all killed)
APPLIED CONDITIONS: 10 µM
This is part of a sample that, as a whole, favours compounds with a hit. Of some 83,000 tested, about 20% had one in any assay.
Numeric only. Scale: %

Record request: growth value, item O=C(CN1CCN(c2ncnc3c2cnn3-c2ccccc2)CC1)Nc1ccc(Cl)cc1
55.8

Record request: growth value, item COc1ccc(-n2c(SCC(=O)NNS(=O)(=O)c3ccccc3)nc3ccc(Cl)cc3c2=O)cc1
118

Record request: growth value, item O=C(CC(=O)Nc1ccc(Oc2ncnc3scc(Nc4n[nH]c(=S)s4)c23)cc1)Nc1ccc(Br)cc1
112

Record request: growth value, item C#C[C@]1(O)CC[C@H]2[C@@H]3CC=C4c5sc(Nc6ccc(N(C)C)cc6)nc5CC[C@]4(C)[C@H]3CC[C@@]21C
33.4

Record request: growth value, item CCOC(=O)C1=C(N)N(c2ccc(C)cc2)C2=C(C(=O)CC(C)(C)C2)C1c1ccccc1Br (stereo not given)
89.4

###

Listed here are compounds together with their documented growth.
Tested on: MDA-MB-468 breast
ASSAY SUMMARY: NCI-60 one-dose screen, 48 h (100 = growth as untreated, 0 = no growth, -100 = all killed)
APPLIED CONDITIONS: 10 µM unless noted
Compounds without any hit were thinned out: in the full panel of roughly 83,000, 20% have a hit.
Numeric only. Scale: %

Record excerpt, results attached:
CCCC(=O)NC(c1cccnc1)c1ccc2c(C)ccnc2c1O (stereo unspecified): -2
CCOC(=O)c1cn2c3c(cc(F)cc3c1=O)C(CC)c1ccccc1C2 (stereo unspecified): 99.4
O=C(Nc1ccc(Br)cc1)Nc1nc2ccc([N+](=O)[O-])cc2s1: -29
CC(=O)O[C@@H]1/C=C/C(=O)N[C@@H](C)CCC/C=C/[C@@H]2CCC[C@H]21: 101
OC1OC(COC(c2ccccc2)(c2ccccc2)c2ccccc2)C(O)C(O)C1O (stereo unspecified): 89.7

Can you look up growth on MDA-MB-468 breast for NCCCCCNc1noc(Cc2c[nH]c3cc(Br)ccc23)n1 ?
4.11

Can you look up growth on MDA-MB-468 breast for CC(=O)c1c(C)[nH]c(-c2nc3ccc(N4CCN(C)CC4)cc3[nH]2)c1-c1ccc(OCC2CCOCC2)cc1 ?
11.4

Can you look up growth on MDA-MB-468 breast for CC12OC(CC(O)C1O)n1c3ccccc3c3c4c(c5c6ccccc6n2c5c31)C(=O)N(CCN1CCCC1)C4=O (stereo unspecified) ?
3.48

Can you look up growth on MDA-MB-468 breast for CCN(CC)c1ccc(/C=N/NC(=O)c2ccccc2Nc2ccnc(C(F)(F)F)c2)c(O)c1 ?
24.7

Can you look up growth on MDA-MB-468 breast for COc1ccc2c(c1)/C(=C/c1cc(OC)c(OC)c(OC)c1)C(=O)N2C ?
25.9

Can you look up growth on MDA-MB-468 breast for Cc1ccccc1/C=C/C(=O)c1cccc(OCCCCOc2cccc(C(=O)/C=C/c3ccccc3C)c2)c1 ?
86.1

###

Test system: MDA-MB-468 breast
ASSAY SUMMARY: NCI-60 one-dose screen, 48 h (100 = growth as untreated, 0 = no growth, -100 = all killed)
APPLIED CONDITIONS: 10 µM unless noted
This is part of a sample that, as a whole, favours compounds with a hit. Of some 83,000 tested, about 20% had one in any assay.
ENDPOINT NAME: growth (%)
Numeric only. Scale: %

Record request: growth value, item CN(C)C(=S)Sc1ccc([N+](=O)[O-])cc1[N+](=O)[O-]
-78.7

###

Listed here are molecules together with their documented growth.
System: MDA-MB-468 breast
ASSAY SUMMARY: NCI-60 one-dose screen, 48 h (100 = growth as untreated, 0 = no growth, -100 = all killed)
APPLIED CONDITIONS: 10 µM unless noted
This is part of a sample that, as a whole, favours compounds with a hit. Of some 83,000 tested, about 20% had one in any assay.
Numeric only. Scale: %

Can you look up growth on MDA-MB-468 breast for O=C(Nc1cccc([N+](=O)[O-])c1)c1cccc(C(=O)Nc2cccc([N+](=O)[O-])c2)c1 ?
67.1

Can you look up growth on MDA-MB-468 breast for O=[N+]([O-])c1cc(Cl)cc(Cl)c1O ?
104

###

Tested on: MDA-MB-468 breast
ASSAY SUMMARY: NCI-60 one-dose screen, 48 h (100 = growth as untreated, 0 = no growth, -100 = all killed)
APPLIED CONDITIONS: 10 µM unless noted
Compounds without any hit were thinned out: in the full panel of roughly 83,000, 20% have a hit.
Label key: MET means growth under 60%; NOT MET means growth of 60% or more.

As a guide, the following entries are already answered.
O=C(c1ccncc1)N1N=C(c2ccc(Cl)cc2)C[C@H]1c1cn(-c2ccccc2)nc1-c1ccccc1: NOT MET
O=C(Cc1csc2nc(-c3ccc(Cl)cc3)cn12)N/N=C/c1ccccc1O: MET
Nc1ccccc1NC(=O)c1ccc(NC(=O)C/C=C/c2cccnc2)cn1: MET
COc1cc2oc(-c3cccc(NC(=O)c4cccc([N+](=O)[O-])c4)c3)cc(=O)c2c(OC)c1OC: MET

Consider the record given below.
Does the reported growth of C[C@@H](Nc1c(C#N)cnc2ccc(-c3cnc(N)nc3)cc12)c1ccccc1 stay below 60%?
MET

###

System: MDA-MB-468 breast
ASSAY SUMMARY: NCI-60 one-dose screen, 48 h
APPLIED CONDITIONS: 10 µM unless noted
This is part of a sample that, as a whole, favours compounds with a hit. Of some 83,000 tested, about 20% had one in any assay. Calls of active or inactive are those of the source. Rule for the calls: active = growth percent below 10; inactive = the rest.
# output must be one of TRUE (active), FALSE (inactive)

As a guide, the following entries are already answered.
O=C1NN(C(=O)c2ccccc2)C(c2ccc(Cl)c(Cl)c2)=C/C1=C\c1ccccc1[N+](=O)[O-]: FALSE
C#CCNC(=O)[C@H](Cc1ccccc1)NC(=O)[C@]12CC[C@@H](C(=C)C)[C@@H]1[C@H]1CC[C@@H]3[C@@]4(C)CCC(=O)C(C)(C)[C@@H]4CC[C@@]3(C)[C@]1(C)CC2: FALSE
C=CCOc1ccc(Cl)cc1Cl: FALSE
O=[N+]([O-])c1cccc(-c2nc(-c3ccc(Cl)cc3Cl)cn2-c2ccccc2)c1: FALSE
OCCSc1ccc(Cl)cc1: FALSE
COc1ccc(C(=O)c2cc(OC)c(OC)c(OC)c2)cc1/C=C/C(=O)c1ccc2c(c1)OCO2: TRUE
C=C1NC(=O)C(C(C)CC)NC(=O)C2CSCC(NC(=O)CCC(=O)O)C(=O)NC(Cc3ccccc3)C(=O)NC(C)C(=O)NC(CC(C)CC)C(=O)NC(C(=O)NC(Cc3ccccc3)C(=O)N3CCCC3C(=O)N2)C(C)OC(=O)C(CO)NC(=O)C(C(O)COC)N(C)C(=O)C(C(C)C)NC(=O)C(CC(C)CC)NC1=O (stereo not drawn): TRUE
COc1ccc(/C=C/C(=O)Nc2cccnc2Nc2ccc(F)cc2)cc1: FALSE

Test call, this compound: CCOC(=O)c1c(Nc2ccccc2)nn2c(N)c(C#N)c(-c3ccc(OC)cc3)nc12
FALSE

Test call, this compound: C/C(=N\Nc1nc(C)cs1)c1cc2ccccc2o1
FALSE

Test call, this compound: CC1(C)N=C(N)N=C(N)N1c1ccc(S(=O)(=O)Nc2nccs2)cc1
FALSE

Test call, this compound: CCCC1Cc2cc(-n3nc(C)c4c3CC(C)(C)CC4=O)cc(NC3CCC(O)CC3)c2C(=O)N1 (stereo not drawn)
TRUE

Test call, this compound: Nc1nc2c([nH]1)c1[nH]c3ccccc3c1c1[nH]c3ccccc3c21
TRUE

Test call, this compound: C#Cc1cc(C(=O)Nc2ccc(CNCCN3CCOCC3)c(C(F)(F)F)c2)ccc1C
FALSE

Test call, this compound: Cc1cc(NS(=O)(=O)c2ccc(NC(=O)COc3ccc(-c4cc5ccccc5[nH]4)cc3)cc2)no1
TRUE

Test call, this compound: O=C(Nc1ccc2cc3ccc(NC(=O)N4CCCCCC4)cc3nc2c1)N1CCCCCC1
TRUE

Test call, this compound: CCC(=O)c1ccc(O)c(OC)c1
FALSE

Test call, this compound: Cc1cccc(CN(Nc2ccccc2)c2ccccc2)n1
FALSE
